These entries and their values trace back to PubChem BioAssay (NCATS).

# ASSAY COMMENT: Quantitative High-Throughput drug screen in 47 multiple myeloma cell lines against the NCATS MIPE library collection: SKMM1_PLB cell viability assay (AID 1919863); note: potency is the fitted concentration of half-maximal effect; nearly all actives have a fitted effect of over 35% in size
# STUDY CONDITIONS: SKMM1 myeloma viability, CellTiter-Glo ATP, 48 h
Inconclusive results are not listed. Calls of active or inactive are those of the source. Calls come from the whole dose curve; as a rule, active = well fitted cell-killing curve with a large enough effect; inconclusive = small, poorly fitted or top-dose-only effect, or effect the other way; inactive = no such curve, though single readings can be large or run the other way.
# key: entry, value: Potency
MEASUREMENT TYPE: Potency

> print(dat)
                                   molecule  measurement.type            result
1  CC(=O)O[C@@]12CO[C@H]1C[C@H](O)[C@@]1(C)C(=O)[C@H](O)C3=C(C)[C@@H](O)C[C@@](O)([C@@H](OC(=O)c4ccccc4)[C@@H]21)C3(C)C           Potency  4.18 µM (active)
2  COC[C@H]1OC(=O)c2coc3c2[C@@]1(C)C1=C(C3=O)[C@@H]2CC[C@H](O)[C@@]2(C)C[C@@H]1OC(C)=O           Potency  7.43 µM (active)
3  COCC1(CO)C(=O)C2CCN1CC2 (centres undefined)           Potency  6.62 µM (active)
4  O=c1[nH]c2ccccc2n1C1CCN(Cc2ccc(-c3[nH]c4cc5ncnc5cc4nc3-c3ccccc3)cc2)CC1           Potency  20.9 µM (active)

====

# Tested on: Tov112D
# ASSAY COMMENT: Primary qHTS to identify gynecologic anti-cancer compounds using libraries of approved drugs and bioactive compounds (AID 1345084); note: nearly all actives have a fitted effect of over 55% in size
# STUDY CONDITIONS: Gynecologic cancer cell panel viability, ATPlite luminescence, 48 h; series mostly up to 57.5 µM
Inconclusive results are not listed. Activity calls are given as the source filed them. The call rests on the fitted dose curve; in most records, active means well fitted cell-killing curve with a large enough effect; inconclusive means small, poorly fitted or top-dose-only effect, or effect the other way; inactive means flat fitted curve, though single readings scatter.
Outcome codes: active, inactive

> print(dat)
                                    compound  test.target       cat
 1  COC(=O)c1cncn1C(C)c1ccccc1 (configuration not stated)      Tov112D  inactive
 2   O=S(=O)(O)C(F)(F)C(F)(F)C(F)(F)C(F)(F)F      Tov112D  inactive
 3  CCN(CC)C(=O)c1ccc(C2=CC3(CCNCC3)Oc3cccc(O)c32)cc1      Tov112D  inactive
 4  CCO/N=C(\CC)C1=C(O)CC(c2c(C)cc(C)cc2C)CC1=O (configuration not stated)      Tov112D  inactive
 5                          Cc1ccc(Cl)c(O)c1      Tov112D  inactive
 6  CCCCC(CC)COC(=O)c1ccccc1C(=O)OCC(CC)CCCC (configuration not stated)      Tov112D  inactive
 7                   CC(=O)[O][Hg][c]1ccccc1      Tov112D    active
 8  O=C1C(I)=CC(=C(c2cc(I)c(O)c(I)c2)c2ccccc2C(=O)O)C=C1I      Tov112D  inactive
 9  CC1(N2CCC(n3c([C@@H]4CCCNC4)nc4ccccc43)CC2)CCCCCCC1      Tov112D    active
10      O=[N+]([O-])/N=C1\NCCN1Cc1ccc(Cl)nc1      Tov112D  inactive
11        O=[N+]([O-])c1c(Cl)c(Cl)cc(Cl)c1Cl      Tov112D  inactive
12          O=[N+]([O-])c1c2ccccc2cc2ccccc12      Tov112D  inactive

====

# ASSAY COMMENT: qHTS for Inhibitors of the Functional Ribonucleoprotein Complex (vRNP) of Lassa (LASV) Arenavirus: LASV Primary Screen - GLuc reporter signal (AID 1347082); note: % is set by controls: 0 for no effect and ±100 for the full control effect; nearly all actives have a fitted effect of over 60% in size
# STUDY CONDITIONS: LASV minigenome vRNP, Gaussia luciferase reporter; series mostly up to 57.5 µM
Inconclusive results are not listed. Calls of active or inactive are those of the source. The call rests on the fitted dose curve; tested in HEK293 reporter line.
MEASUREMENT TYPE: outcome

> print(dat)
                                   compound  measurement.type    result
1  CC(=CCCC1=CCC(C2=CC(=O)OC2O)OC1O)CCC1=C(C)CCCC1(C)C (stereo not given)           outcome  inactive
2  C[C@]12Cc3cn[nH]c3C[C@@H]1CC[C@@H]1[C@H]2CC[C@@]2(C)[C@H]1CC[C@]2(C)O           outcome  inactive
3  CSCC[C@@H](NC(=O)[C@@H](Cc1ccccc1)NC(=O)CNC(=O)CNC(=O)[C@@H](N)Cc1ccc(O)cc1)C(=O)O           outcome  inactive
4  CC(C)[C@H]1C(=O)N[C@H](CO)Cc2c[nH]c3cccc(c23)N1C           outcome  inactive
5               CCN(CC)CCc1nc(-c2ccccc2)no1           outcome  inactive

====

# ASSAY COMMENT: qHTS profiling of the MIPE4 collection as inhibitors of Plasmodium falciparum (HB3) proliferation (AID 743347);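 note: plate controls were DMSO vehicle wells for no effect and artemisinin wells for full effect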
# STUDY CONDITIONS: P. falciparum HB3 in erythrocytes, SYBR Green DNA, 72 h; at 28.5 µM (top of the series)
# key: entry, value: growth, % of control
MEASUREMENT TYPE: growth, % of control (%)

COMPOUND	MEASURED NUMBER
COc1ccc(C(=O)c2c(C)n(CCN3CCOCC3)c3cc(I)ccc23)cc1	33.7
CSCC[C@@H](NC(=O)[C@@H](Cc1ccccc1)NC(=O)CNC(=O)CNC(=O)[C@@H](N)Cc1ccc(O)cc1)C(=O)O	99.5
O=C(Nc1ccncc1)C(=O)c1cn(Cc2ccc(Cl)cc2)c2ccccc12	78.4
C[C@@H]1[C@H](O)[C@@H](C)C=CC=CCCC=CC=CC=CC=C[C@H](O[C@H]2O[C@@H](C)[C@H](O)[C@@H](N)[C@@H]2O)CC2O[C@](O)(C[C@@H](O)[C@H](O)CC[C@@H](O)C[C@@H](O)C[C@@H](O)CC(=O)O[C@H]1C)C[C@H](O)[C@H]2C(=O)O	83.8
CC(O)=C(C#N)C(=O)Nc1cc(Br)ccc1Br	93.7
COc1ccc2c(c1)[C@]13CCCCC1C(C2)N(C)CC3 (some centres not stated)	323
CC(=Cc1csc(C)n1)[C@@H]1C[C@H]2O[C@]2(C)CCC[C@H](C)[C@@H](O)[C@@H](C)C(=O)C(C)(C)[C@@H](O)CC(=O)O1	16.9

====

# ASSAY COMMENT: qHTS of pediatric cancer cell lines to identify multiple opportunities for drug repurposing: Primary screen for TC32 cells (AID 1347089); note: nearly all actives have a fitted effect of over 60% in size
# STUDY CONDITIONS: TC32 Ewing sarcoma viability, CellTiter-Glo luminescence, 48 h; series mostly up to 45.8 µM
Results filed as inconclusive are left out. Activity calls are given as the source filed them. The call rests on the fitted dose curve; in most records, active means well fitted cell-killing curve with a large enough effect; inconclusive means small, poorly fitted or top-dose-only effect; inactive means flat fitted curve, though single readings scatter.
Outcome codes: active, inactive

> print(dat)
                                    compound       cat
 1  O=C1C(I)=CC(=C(c2cc(I)c(O)c(I)c2)c2ccccc2C(=O)O)C=C1I  inactive
 2  CC(C)(C)[C@]1(O)C[C@@H]2OC(=O)C[C@@]23C(=O)O[C@@H]2OC(=O)[C@H](O)C213 (stereo not given in full)  inactive
 3  C[C@]12CC[C@H]3[C@@H](CCC4=CC(=O)CC[C@@]43C)[C@H]1CC[C@H]2O  inactive
 4  CC(=O)Nc1ccc(OC[C@](C)(O)C(=O)Nc2ccc([N+](=O)[O-])c(C(F)(F)F)c2)cc1  inactive
 5      O=[N+]([O-])/N=C1\NCCN1Cc1ccc(Cl)nc1  inactive
 6           CC(C)(C)NC[C@H](O)c1ccc(O)cc1Cl  inactive
 7  CC(C)(C)C(O)C(Oc1ccc(Cl)cc1)n1cncn1 (stereo not given)  inactive
 8  C[C@@]12OC(=O)[C@]1([C@@H](O)[C@@H]1C=CCCC1)NC(=O)[C@H]2CCCl    active
 9        O=[N+]([O-])c1c(Cl)c(Cl)cc(Cl)c1Cl  inactive
10  CCOP(=O)(NC(C)C)Oc1ccc(SC)c(C)c1 (stereo not given)  inactive

====

# ASSAY COMMENT: Quantitative High-Throughput drug screen in 47 multiple myeloma cell lines against the NCATS MIPE library collection: INA6_PLB cell viability assay (AID 1918965; note: nearly all actives have a fitted effect of over 55% in size)
# STUDY CONDITIONS: INA6 myeloma viability, CellTiter-Glo ATP luminescence, 48 h; series mostly up to 45.8 µM
Records with an inconclusive call do not appear. Active and inactive are the calls of the source. Calls follow the shape of the dose curve; as a rule, active = well fitted cell-killing curve with a large enough effect; inconclusive = small, poorly fitted or top-dose-only effect, or effect the other way; inactive = no such curve, though single readings can be large or run the other way.
Outcome codes: active, inactive

> print(dat)
                                   compound       cat
1  COc1ccc2c(c1)CN(C)CC2c1ccc(Cl)c(Cl)c1 (stereo not given)    active
2        CC(C)(C)c1cc(C=C(C#N)C#N)cc(Br)c1O    active
3                 O=c1cccc2n1CC1CNC[C@H]2C1    active
4  CCNC(=O)C[C@@H]1N=C(c2ccc(Cl)cc2)c2cc(OC)ccc2-n2c(C)nnc21    active
5  CCc1c(C(=O)C(N)=O)c2c(OCC(=O)O)cccc2n1Cc1ccccc1  inactive
